System: M19-MEL melanoma
measurement notes: NCI tumour cell line growth inhibition, 48 h
Measured TGI accompanies every entry in the list below.

compound: CC(=O)n1nnc2ccc([N+](=O)[O-])cc21
tested system: M19-MEL melanoma
TGI: > 100 µM

Q) So what does the record say about TGI for CCc1cccc(C)c1N1C(=O)C(=O)C(c2nc3ccccc3o2)/C(=N/NC(=S)NN)C1=O (stereo not drawn) ?
A) > 100 µM

Q) Looking for the measured TGI of Cc1cc(Cl)ccc1NC(=O)CC1SC(=NC(=O)c2ccccc2Cl)NC1=O (stereo not drawn) , can you help?
A) 35.8 µM

----------
System: SK-OV-3 ovarian
measurement notes: NCI tumour cell line growth inhibition, 48 h
assay readout: TGI

compound: O=C(CSc1nnc(Cc2ccccc2)o1)Nc1ccc(Cl)cc1[N+](=O)[O-]
TGI: > 100 µM
--
compound: O=C(O)CCNc1ncc2c(n1)-c1ccccc1OC2
TGI: > 100 µM
--
compound: CNCCCn1c2c(c3ccc(Cl)cc3c1=O)C(=O)c1cc(OC)cnc1-2
TGI: 2.08 µM
--
compound: CCCCC(O)(c1ccccc1)C(O)(c1ccccc1)c1c(F)c(F)c(F)c(F)c1F (stereo not drawn)
TGI: > 100 µM
--
compound: O=C1C[C@@H]2[C@@H](CCC23CCCC3)N1
TGI: > 100 µM
--
compound: CC(=O)N(C)c1cc(NCc2ccccc2)ccc1OCc1ccccc1
TGI: 43.1 µM
--
compound: CN1C(=O)/C(=C2\S/C(=N\c3nnc(-c4ccccc4)o3)NC2=O)c2ccccc21
TGI: > 100 µM
--
compound: COc1ccc(C2CC(c3ccc(NS(=O)(=O)c4cc([N+](=O)[O-])ccc4C)cc3)=NN2S(=O)(=O)c2cc([N+](=O)[O-])ccc2C)cc1 (stereo not drawn)
TGI: > 100 µM

Q) TGI for CCC1(OC(=O)CNC)C(=O)OCc2c1cc1n(c2=O)Cc2cc3ccccc3nc2-1 (stereo not drawn) ?
A) 0.152 µM

Q) Quick one: TGI for `CCCCOC(=O)/C=C\C(=O)NC(N)=O` ?
A) > 100 µM

----------
System: MDA-MB-435
measurement notes: NCI tumour cell line growth inhibition, 48 h
assay readout: log10 of TGI (log10 of the value in µM)
Each number you see is log10 of TGI, and the unit inside the log is µM.

See these solved cases before continuing.
compound: CC(C)C(=O)Nc1ccc(-c2nc(-c3cccc(OCCN4CCOCC4)c3)c(-c3ccnc(Br)c3)[nH]2)cc1
assay readout: log10 of TGI
observed result: 1.00
//
compound: CC(=O)Nc1c2sscc-2n(C)c1=O
assay readout: log10 of TGI
observed result: 0.40
//
compound: COc1ccc2nc3cc(Cl)ccc3c(NCCNCC(O)CO)c2c1 (stereo not given)
assay readout: log10 of TGI
observed result: 0.66
//
compound: CCC(CC)c1cc(N[C@H]2CC[C@H](N)C2)n2nccc2n1
assay readout: log10 of TGI
observed result: 0.58
//
compound: O=C(NCCCl)NCCN1c2nc3ccccc3cc2Sc2cc3ccccc3nc21
assay readout: log10 of TGI
observed result: 1.05
//
compound: C=C[C@]1(C)CC(=O)C(C(C)C=O)[C@]12C(=O)Oc1cccc(C)c1C2=O (stereo not given in full)
assay readout: log10 of TGI
observed result: 1.47

Here is another compound to look at.
Q) // returns reported log10 of TGI for input `CSC1=C(SC)C(=O)c2cn(C)c(=O)cc2C1=O`
A) 0.53

Entry source: PubChem BioAssay (NCI)
